Measured Activity, listed per entry for reference.
- Test system: Tetranychus urticae
- method: Acaricidal activity against Tetranychus urticae (two-spotted spider mite) in two-leaf stage of kidney bean leaf surface at 500 ppm after 6 hr relative to control
- Assay type: functional
Field: numeric (%). Do not append units.

Worked examples, 5 compounds total:
# chemSmiles, valueUnits, measurement
measured = [
    ("CO/N=C(/c1ccc(Cl)cc1)c1ccccc1COc1ccc(C(F)(F)F)cn1", "%", 95),
    ("CO/N=C(/c1ccc(Cl)cc1)c1ccccc1COc1cccc(C(F)(F)F)c1", "%", 0),
    ("CO/N=C(/c1ccc(Cl)cc1)c1ccccc1COc1cccc(Cl)c1", "%", 0),
    ("CON=C(c1ccc(Cl)cc1)c1ccc(COc2ccc(C(F)(F)F)cc2)cc1", "%", 0),
    ("CO/N=C(/c1ccc(C(F)(F)F)cc1)c1ccccc1COc1ccc(C(F)(F)F)cn1", "%", 95),
]

What the record says about CO/N=C(/c1ccc(Cl)cc1)c1ccccc1Oc1ccc(C(F)(F)F)cc1 : Activity is 0

What the record says about CO/N=C(/c1ccc(Oc2ccccc2)cc1)c1ccccc1COc1ccc(C(F)(F)F)cn1 : Activity is 0

What the record says about CO/N=C(/c1ccc(Cl)cc1)c1ccccc1COc1ccccc1 : Activity is 0

---

- Test system: Tetranychus urticae
- method: Acaricidal activity against Tetranychus urticae (two-spotted spider mite) in two-leaf stage of kidney bean leaf surface at 250 ppm after 6 hr relative to control
- Assay type: functional
testReadout: Activity
# number then unit; no other words

Per the reported Tetranychus urticae data, CO/N=C(/c1ccc(OC(F)(F)F)cc1)c1ccccc1COc1ccc(C(F)(F)F)cn1 has Activity of 70%

Per the reported Tetranychus urticae data, CO/N=C(/c1ccc(Br)cc1)c1ccccc1COc1ccc(C(F)(F)F)cn1 has Activity of 95%

Per the reported Tetranychus urticae data, CO/N=C(/c1ccc([N+](=O)[O-])cc1)c1ccccc1COc1ccc(C(F)(F)F)cn1 has Activity of 95%

Per the reported Tetranychus urticae data, CO/N=C(/c1ccc(C#N)cc1)c1ccccc1COc1ccc(C(F)(F)F)cn1 has Activity of 95%

Per the reported Tetranychus urticae data, CO/N=C(/c1ccc(Cl)cc1)c1ccccc1COc1ccc(C(F)(F)F)cc1 has Activity of 95%

Per the reported Tetranychus urticae data, CO/N=C(\c1ccc(Cl)cc1)c1ccccc1COc1ccc(C(F)(F)F)cc1 has Activity of 70%

Per the reported Tetranychus urticae data, CO/N=C(/c1ccc(C(F)(F)F)cc1)c1ccccc1COc1ccc(C(F)(F)F)cn1 has Activity of 95%

Per the reported Tetranychus urticae data, CO/N=C(/c1ccc(Cl)cc1)c1ccccc1COc1ccc(C(F)(F)F)cn1 has Activity of 95%

Per the reported Tetranychus urticae data, CO/N=C(/c1ccc(F)cc1)c1ccccc1COc1ccc(C(F)(F)F)cn1 has Activity of 95%

Per the reported Tetranychus urticae data, CO/N=C(/c1ccc(F)cc1)c1ccccc1COc1ccc(C(F)(F)F)cc1 has Activity of 0%

---

Measured Activity, listed per entry for reference.
- Tested on: Tetranychus urticae
- method: Acaricidal activity against Tetranychus urticae (two-spotted spider mite) in two-leaf stage of kidney bean leaf surface at 500 ppm after 6 hr relative to control
- Format: functional
Field: numeric (%). Do not append units.

Worked examples, 5 molecules total:
# chemSmiles, Activity (%)
records = [
    ("CO/N=C(/c1ccc(F)cc1)c1ccccc1COc1ccc(C(F)(F)F)cn1", 95),
    ("CO/N=C(/c1ccc(Cl)cc1)c1ccccc1COc1ncc(C(F)(F)F)cc1Cl", 0),
    ("CO/N=C(/c1ccc(Cl)cc1)c1ccccc1COc1ccc(C(C)(C)C)cc1", 0),
    ("CO/N=C(/c1ccc(-c2ccccc2)cc1)c1ccccc1COc1ccc(C(F)(F)F)cn1", 0),
    ("CO/N=C(/c1ccc(OC)cc1)c1ccccc1COc1ccc(C(F)(F)F)cn1", 0),
]

What the record says about CO/N=C(/c1ccc(F)cc1)c1ccccc1COc1ccc(C(F)(F)F)cc1 : Activity is 95

What the record says about CO/N=C(/c1cccc(F)c1)c1ccccc1COc1ccc(C(F)(F)F)cn1 : Activity is 70

What the record says about CON=C(c1ccc(F)cc1)c1cccc(COc2ccc(C(F)(F)F)cc2)c1 : Activity is 0

What the record says about CO/N=C(/c1ccc(OC(F)(F)F)cc1)c1ccccc1COc1ccc(C(F)(F)F)cn1 : Activity is 95

What the record says about CO/N=C(\c1ccc(F)cc1)c1ccccc1COc1ccc(C(F)(F)F)cc1 : Activity is 70

What the record says about CO/N=C(/c1ccc(Cl)cc1)c1ccccc1COc1ccccc1C(F)(F)F : Activity is 0

What the record says about CO/N=C(/c1ccc(Cl)cc1)c1ccccc1COc1ccccc1Cl : Activity is 0

What the record says about CON=C(c1ccc(Cl)cc1)c1cccc(COc2ccc(C(F)(F)F)cc2)c1 : Activity is 0

What the record says about CON=C(c1ccc(F)cc1)c1ccc(COc2ccc(C(F)(F)F)cc2)cc1 : Activity is 0

What the record says about CO/N=C(/c1ccc(Cl)cc1)c1ccccc1COc1ccc(Cl)cc1 : Activity is 0

What the record says about CO/N=C(/c1ccc(Cl)cc1)c1ccccc1COc1ccc(-c2ccccc2)cc1 : Activity is 0

What the record says about CO/N=C(/c1ccccc1)c1ccccc1COc1ccc(C(F)(F)F)cn1 : Activity is 0

What the record says about CO/N=C(/c1ccc(Cl)cc1)c1ccccc1COc1ccc(OC(F)(F)F)cc1 : Activity is 0

What the record says about CO/N=C(\c1ccc(Cl)cc1)c1ccccc1COc1ccc(C(F)(F)F)cc1 : Activity is 95

What the record says about CO/N=C(/c1ccc([N+](=O)[O-])cc1)c1ccccc1COc1ccc(C(F)(F)F)cn1 : Activity is 95

What the record says about CO/N=C(/c1ccc(Cl)cc1)c1ccccc1COc1ccc(C)cc1 : Activity is 0

---

Measured Activity, listed per entry for reference.
- Tested on: Tetranychus urticae
- method: Acaricidal activity against Tetranychus urticae (two-spotted spider mite) in two-leaf stage of kidney bean leaf surface at 500 ppm after 6 hr relative to control
- Type: functional
# number then unit; no other words

What the record says about CO/N=C(/c1cccc(Cl)c1)c1ccccc1COc1ccc(C(F)(F)F)cn1 : Activity is 0%

---

Measured Activity, listed per entry for reference.
- Tested on: Tetranychus urticae
- method: Acaricidal activity against Tetranychus urticae (two-spotted spider mite) in two-leaf stage of kidney bean leaf surface at 500 ppm after 6 hr relative to control
- Format: functional
Field: numeric (%). Do not append units.

# chemSmiles, Activity / %
records = [
    ("CO/N=C(/c1ccc(C)cc1)c1ccccc1COc1ccc(C(F)(F)F)cn1", 0),
    ("CO/N=C(/c1ccc(Cl)cc1)c1ccccc1COc1nnc(C(F)(F)F)s1", 0),
    ("CO/N=C(/c1ccc(Cl)cc1)c1ccccc1COc1ccc(C(F)(F)F)cc1", 95),
    ("CO/N=C(/c1ccccc1Cl)c1ccccc1COc1ccc(C(F)(F)F)cn1", 0),
    ("CO/N=C(/c1ccc(C#N)cc1)c1ccccc1COc1ccc(C(F)(F)F)cn1", 95),
]

Continue with the compound presented below.
What the record says about CO/N=C(/c1ccc(Cl)cc1)c1ccccc1COc1ncccc1C(F)(F)F : Activity is 0

---

- System: Tetranychus urticae
- method: Acaricidal activity against Tetranychus urticae (two-spotted spider mite) in two-leaf stage of kidney bean leaf surface at 500 ppm after 6 hr relative to control
- Type: functional
Measured Activity, listed per entry for reference.
Field: numeric (%). Do not append units.

# chemSmiles, Activity [%]
data = [
    ("CON=C(c1ccccc1F)c1ccccc1COc1ccc(C(F)(F)F)cn1", 0),
    ("CO/N=C(/c1ccc(Cl)cc1)c1ccccc1OCc1ccc(C(F)(F)F)cc1", 0),
]

What the record says about CO/N=C(/c1ccc(Br)cc1)c1ccccc1COc1ccc(C(F)(F)F)cn1 : Activity is 95
